Attribution: ChEMBL document CHEMBL1201862

We begin with a simple list: items and their reported IC50.
- Experimental Target: Sentrin-specific protease 6 (Homo sapiens, UniProt Q9GZR1);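 note: Luminescence-based dose-response confirmatory assay of SENP6 inhibition, following up an ultra-high-throughput screen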
- Sequence (Q9GZR1 whole entry): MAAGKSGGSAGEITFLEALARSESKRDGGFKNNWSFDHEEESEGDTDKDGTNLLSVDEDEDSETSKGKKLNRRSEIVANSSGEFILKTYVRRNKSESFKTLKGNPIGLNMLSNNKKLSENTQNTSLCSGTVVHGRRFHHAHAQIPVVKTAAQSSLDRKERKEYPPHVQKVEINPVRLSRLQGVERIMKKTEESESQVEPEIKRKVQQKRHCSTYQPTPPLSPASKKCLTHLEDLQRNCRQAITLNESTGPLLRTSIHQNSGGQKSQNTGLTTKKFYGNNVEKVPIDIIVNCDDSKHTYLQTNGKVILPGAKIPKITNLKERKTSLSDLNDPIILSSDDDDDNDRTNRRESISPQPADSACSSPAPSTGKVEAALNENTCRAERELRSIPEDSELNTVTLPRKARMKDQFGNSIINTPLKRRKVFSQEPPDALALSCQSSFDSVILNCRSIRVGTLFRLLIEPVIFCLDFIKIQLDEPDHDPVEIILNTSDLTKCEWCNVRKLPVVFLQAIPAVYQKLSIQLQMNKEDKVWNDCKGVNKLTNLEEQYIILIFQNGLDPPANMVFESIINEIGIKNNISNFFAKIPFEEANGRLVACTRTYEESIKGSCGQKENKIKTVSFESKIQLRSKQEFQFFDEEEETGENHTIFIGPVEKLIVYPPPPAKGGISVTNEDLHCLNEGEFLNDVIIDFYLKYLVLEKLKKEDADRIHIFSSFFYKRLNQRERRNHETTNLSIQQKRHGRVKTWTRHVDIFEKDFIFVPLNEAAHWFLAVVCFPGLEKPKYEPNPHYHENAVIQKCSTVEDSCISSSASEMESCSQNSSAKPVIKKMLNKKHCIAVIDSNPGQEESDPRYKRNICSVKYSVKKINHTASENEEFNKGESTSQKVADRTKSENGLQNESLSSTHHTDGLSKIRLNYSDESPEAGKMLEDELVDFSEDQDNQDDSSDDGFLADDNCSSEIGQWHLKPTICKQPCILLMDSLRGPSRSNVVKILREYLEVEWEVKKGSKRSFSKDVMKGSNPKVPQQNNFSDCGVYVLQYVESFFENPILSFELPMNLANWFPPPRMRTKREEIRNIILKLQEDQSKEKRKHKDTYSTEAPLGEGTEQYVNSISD
- Format: functional
Active and inactive are the calls of the source.

Recorded IC50, per entry:
>>> print(df.to_string())
                          smiles_string                       experimental_target     measured_value
0  Cc1nc(Nc2ccc(C(=O)O)cc2)sc1-c1ccccc1  Sentrin-specific protease 6 (Homo sapiens, UniProt Q9GZR1)  0.787 µM (active)
1  CCN(CC)c1ccc(Nc2nc(-c3cccnc3)cs2)cc1  Sentrin-specific protease 6 (Homo sapiens, UniProt Q9GZR1)   16.9 µM (active)
2      CCOc1ccc2nc(NC(=O)Cc3cccs3)sc2c1  Sentrin-specific protease 6 (Homo sapiens, UniProt Q9GZR1)   33.2 µM (active)

Entry CC(=O)N(/N=C1\Sc2ccccc2C1=O)c1ccccc1C : reported IC50 = ?
1.91 µM (active)

Same question, O=C1/C(=C/c2cccc(F)c2)Oc2cc(O)ccc21 this time
15.9 µM (active)

Same question, COc1cc(OC)cc(C(=O)Nc2ccc(Nc3ccccc3)cc2)c1 this time
17.8 µM (active)
